target_under_test: GST-tagged truncated LRRK2 containing residues 970 to 2527 (Homo sapiens)
Construct: GST-tagged truncated LRRK2 containing residues 970 to 2527 (Life Technologies); purchased Life Technologies
Sequence (Q5S007 970-2527): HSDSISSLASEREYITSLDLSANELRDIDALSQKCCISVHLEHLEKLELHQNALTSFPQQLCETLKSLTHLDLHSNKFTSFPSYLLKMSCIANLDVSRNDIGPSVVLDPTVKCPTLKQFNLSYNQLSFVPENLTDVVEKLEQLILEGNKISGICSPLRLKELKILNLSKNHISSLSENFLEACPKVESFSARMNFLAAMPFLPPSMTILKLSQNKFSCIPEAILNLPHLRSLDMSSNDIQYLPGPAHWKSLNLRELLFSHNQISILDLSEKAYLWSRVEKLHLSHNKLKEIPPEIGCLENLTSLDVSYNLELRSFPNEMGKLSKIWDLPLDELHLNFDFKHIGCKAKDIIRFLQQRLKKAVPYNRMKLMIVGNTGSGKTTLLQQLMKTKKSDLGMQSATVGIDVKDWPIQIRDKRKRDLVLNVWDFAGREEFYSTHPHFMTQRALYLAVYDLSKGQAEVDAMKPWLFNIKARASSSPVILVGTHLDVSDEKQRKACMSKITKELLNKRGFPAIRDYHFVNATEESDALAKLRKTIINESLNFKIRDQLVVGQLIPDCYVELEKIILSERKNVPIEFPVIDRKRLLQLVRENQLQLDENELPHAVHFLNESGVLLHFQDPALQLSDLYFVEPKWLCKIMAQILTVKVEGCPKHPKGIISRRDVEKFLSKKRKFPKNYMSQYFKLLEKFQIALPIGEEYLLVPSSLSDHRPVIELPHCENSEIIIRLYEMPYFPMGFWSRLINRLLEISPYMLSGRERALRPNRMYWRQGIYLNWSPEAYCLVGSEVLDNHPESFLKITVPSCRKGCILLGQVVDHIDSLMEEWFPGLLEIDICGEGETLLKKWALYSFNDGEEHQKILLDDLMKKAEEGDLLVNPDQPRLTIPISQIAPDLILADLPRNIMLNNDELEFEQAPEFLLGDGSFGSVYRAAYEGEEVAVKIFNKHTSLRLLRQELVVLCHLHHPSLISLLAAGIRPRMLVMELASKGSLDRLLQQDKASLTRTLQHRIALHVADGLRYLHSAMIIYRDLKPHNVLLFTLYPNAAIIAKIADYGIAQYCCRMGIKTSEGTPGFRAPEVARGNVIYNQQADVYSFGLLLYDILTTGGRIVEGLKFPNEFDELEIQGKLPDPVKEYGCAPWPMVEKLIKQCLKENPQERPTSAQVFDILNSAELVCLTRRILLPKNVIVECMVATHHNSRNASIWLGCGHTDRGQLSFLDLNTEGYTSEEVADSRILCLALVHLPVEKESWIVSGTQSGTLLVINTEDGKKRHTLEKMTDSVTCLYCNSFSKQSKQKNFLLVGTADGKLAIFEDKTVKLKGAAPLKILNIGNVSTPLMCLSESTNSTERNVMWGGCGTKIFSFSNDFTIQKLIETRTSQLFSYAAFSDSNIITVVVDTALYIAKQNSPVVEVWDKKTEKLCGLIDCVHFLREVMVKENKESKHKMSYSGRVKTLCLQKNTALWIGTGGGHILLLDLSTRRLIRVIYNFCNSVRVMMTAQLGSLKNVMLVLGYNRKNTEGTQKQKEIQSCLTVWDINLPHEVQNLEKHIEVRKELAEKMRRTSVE
assay_info: In vitro LRRKtide peptide-substrate kinase assay, single dose testing (10 μM)
Type: biochemical
study_conditions: LRRKtide assay @ 10 μM inhibitor; GST-LRRK2 970-2527; 10 μM ATP; mean, N = 3; solvent control = 100%
Each entry gets 0.0 if its % LRRKtide phosphorylation relative to solvent stays under 50%, and 1.0 if its % LRRKtide phosphorylation relative to solvent is 50% or above.

Some solved entries appear below for comparison.
> print(dat)
                                   compound  class
1    O=C1Cc2c([nH]c3ccc(Br)cc23)-c2ccccc2N1    0.0
2        Oc1ccc(Nc2nc(-c3ccc(Cl)cc3)cs2)cc1    1.0
3  CCCC(=O)Oc1ccc2[nH]c(C(=O)c3cc4ccccc4[nH]3)cc2c1    1.0

Does the compound CN(C)CCCn1cc(C2=C(c3c[nH]c4ccccc34)C(=O)NC2=O)c2ccccc21 [Bisindolylmaleimide I] have recorded % LRRKtide phosphorylation relative to solvent that is 50% or more?
0.0

Hi, just wondering whether Oc1ccc(-c2nc(-c3ccncc3)c(-c3ccc(F)cc3)[nH]2)cc1 shows % LRRKtide phosphorylation relative to solvent of 50% or higher.
0.0
